Subject of test: Factor X (FX), P00742
Sequence (P00742 whole entry, looked up): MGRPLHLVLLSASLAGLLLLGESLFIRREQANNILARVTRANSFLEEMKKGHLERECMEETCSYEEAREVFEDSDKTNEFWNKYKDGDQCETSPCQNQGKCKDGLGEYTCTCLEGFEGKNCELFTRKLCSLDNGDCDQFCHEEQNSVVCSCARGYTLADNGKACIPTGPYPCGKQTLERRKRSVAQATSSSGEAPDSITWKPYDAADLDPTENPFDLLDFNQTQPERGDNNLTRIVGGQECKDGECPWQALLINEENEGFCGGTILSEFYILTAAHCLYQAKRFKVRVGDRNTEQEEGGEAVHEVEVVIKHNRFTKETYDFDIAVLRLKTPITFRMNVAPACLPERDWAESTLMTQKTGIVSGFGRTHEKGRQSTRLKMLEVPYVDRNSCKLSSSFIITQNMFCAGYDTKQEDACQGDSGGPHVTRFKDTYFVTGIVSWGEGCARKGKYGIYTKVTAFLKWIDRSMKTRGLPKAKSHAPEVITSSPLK
Kindly supply the reported kcat/KM for FX activation (Xase assay with FVIIIa, PC/PS vesicles, Ca2+) values for the records listed here.
Kindly provide the numeric value in M⁻¹ s⁻¹ only, without the unit symbol.

Any idea what kcat/KM for FX activation (Xase assay with FVIIIa, PC/PS vesicles, Ca2+) was measured for FIXa-K293E/R338E/R403E (protein) chain 1: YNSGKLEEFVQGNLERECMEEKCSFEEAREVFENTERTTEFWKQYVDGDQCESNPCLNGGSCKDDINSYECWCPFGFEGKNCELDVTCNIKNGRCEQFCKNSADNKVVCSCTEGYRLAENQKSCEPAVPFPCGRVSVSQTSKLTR chain 2: VVGGEDAKPGQFPWQVVLNGKVDAFCGGSIVNEKWIVTAAHCVETGVKITVVAGEHNIEETEHTEQKRNVIRIIPHHNYNAAINKYNHDIALLELDEPLVLNSYVTPICIADEEYTNIFLKFGSGYVSGWGRVFHKGRSALVLQYLRVPLVDRATCLESTKFTIYNNMFCAGFHEGGRDSCQGDSGGPHVTEVEGTSFLTGIISWGEECAMKGKYGIYTKVSEYVNWIKEKTKLT ?
1.7e+07

Reported kcat/KM for FX activation (Xase assay with FVIIIa, PC/PS vesicles, Ca2+), protein FIXa-D203N/F205T/R338E (protein) chain 1: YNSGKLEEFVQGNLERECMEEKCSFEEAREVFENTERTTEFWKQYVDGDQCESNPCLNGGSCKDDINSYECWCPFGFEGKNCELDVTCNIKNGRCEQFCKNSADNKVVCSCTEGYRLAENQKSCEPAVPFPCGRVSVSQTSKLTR chain 2: VVGGEDAKPGQFPWQVVLNGKVNATCGGSIVNEKWIVTAAHCVETGVKITVVAGEHNIEETEHTEQKRNVIRIIPHHNYNAAINKYNHDIALLELDEPLVLNSYVTPICIADKEYTNIFLKFGSGYVSGWGRVFHKGRSALVLQYLRVPLVDRATCLESTKFTIYNNMFCAGFHEGGRDSCQGDSGGPHVTEVEGTSFLTGIISWGEECAMKGKYGIYTKVSRYVNWIKEKTKLT : ____
1e+08

What does the record list as kcat/KM for FX activation (Xase assay with FVIIIa, PC/PS vesicles, Ca2+) for FIXa-D203N/F205T/E410N (protein) chain 1: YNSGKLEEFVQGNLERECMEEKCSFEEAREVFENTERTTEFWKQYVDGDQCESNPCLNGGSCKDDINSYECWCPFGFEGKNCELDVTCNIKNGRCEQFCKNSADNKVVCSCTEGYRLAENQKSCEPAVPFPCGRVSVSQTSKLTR chain 2: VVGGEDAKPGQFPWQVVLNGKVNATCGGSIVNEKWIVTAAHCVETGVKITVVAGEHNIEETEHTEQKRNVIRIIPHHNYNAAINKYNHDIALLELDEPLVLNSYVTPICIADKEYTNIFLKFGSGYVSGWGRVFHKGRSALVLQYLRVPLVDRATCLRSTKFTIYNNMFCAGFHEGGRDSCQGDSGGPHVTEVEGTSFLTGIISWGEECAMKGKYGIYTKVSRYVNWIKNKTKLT ?
4.2e+07

Fill in: kcat/KM for FX activation (Xase assay with FVIIIa, PC/PS vesicles, Ca2+) of FIXa-D203N/F205T/K228N (protein) chain 1: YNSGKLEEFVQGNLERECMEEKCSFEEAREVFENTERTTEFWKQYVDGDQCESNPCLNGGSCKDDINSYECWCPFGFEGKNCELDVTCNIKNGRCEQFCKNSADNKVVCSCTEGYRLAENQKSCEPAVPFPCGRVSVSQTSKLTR chain 2: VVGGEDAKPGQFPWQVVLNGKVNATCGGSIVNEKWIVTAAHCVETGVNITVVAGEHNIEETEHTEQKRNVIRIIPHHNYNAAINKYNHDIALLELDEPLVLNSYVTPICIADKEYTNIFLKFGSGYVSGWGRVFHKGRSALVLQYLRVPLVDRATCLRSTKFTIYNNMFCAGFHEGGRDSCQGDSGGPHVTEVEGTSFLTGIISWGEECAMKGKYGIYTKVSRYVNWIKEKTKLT is ___
1.4e+07

Param item = FIXa-R338E/R403E/E410N (protein) chain 1: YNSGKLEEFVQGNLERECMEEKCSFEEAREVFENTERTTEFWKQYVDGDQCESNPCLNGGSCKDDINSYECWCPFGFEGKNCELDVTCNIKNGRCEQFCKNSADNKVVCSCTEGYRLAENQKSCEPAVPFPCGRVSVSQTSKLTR chain 2: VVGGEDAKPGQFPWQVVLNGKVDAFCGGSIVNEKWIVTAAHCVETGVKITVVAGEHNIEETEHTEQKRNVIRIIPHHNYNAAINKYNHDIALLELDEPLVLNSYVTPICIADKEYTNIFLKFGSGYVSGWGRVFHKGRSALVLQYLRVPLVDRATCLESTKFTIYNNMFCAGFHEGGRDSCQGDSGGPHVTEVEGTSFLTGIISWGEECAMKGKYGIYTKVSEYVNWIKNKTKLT ; retrieve measured kcat/KM for FX activation (Xase assay with FVIIIa, PC/PS vesicles, Ca2+).
7.8e+07
